Biological target: KRAS-WT and SOS1 proteins (Homo sapiens)
Sequence (Q07889 1-1333): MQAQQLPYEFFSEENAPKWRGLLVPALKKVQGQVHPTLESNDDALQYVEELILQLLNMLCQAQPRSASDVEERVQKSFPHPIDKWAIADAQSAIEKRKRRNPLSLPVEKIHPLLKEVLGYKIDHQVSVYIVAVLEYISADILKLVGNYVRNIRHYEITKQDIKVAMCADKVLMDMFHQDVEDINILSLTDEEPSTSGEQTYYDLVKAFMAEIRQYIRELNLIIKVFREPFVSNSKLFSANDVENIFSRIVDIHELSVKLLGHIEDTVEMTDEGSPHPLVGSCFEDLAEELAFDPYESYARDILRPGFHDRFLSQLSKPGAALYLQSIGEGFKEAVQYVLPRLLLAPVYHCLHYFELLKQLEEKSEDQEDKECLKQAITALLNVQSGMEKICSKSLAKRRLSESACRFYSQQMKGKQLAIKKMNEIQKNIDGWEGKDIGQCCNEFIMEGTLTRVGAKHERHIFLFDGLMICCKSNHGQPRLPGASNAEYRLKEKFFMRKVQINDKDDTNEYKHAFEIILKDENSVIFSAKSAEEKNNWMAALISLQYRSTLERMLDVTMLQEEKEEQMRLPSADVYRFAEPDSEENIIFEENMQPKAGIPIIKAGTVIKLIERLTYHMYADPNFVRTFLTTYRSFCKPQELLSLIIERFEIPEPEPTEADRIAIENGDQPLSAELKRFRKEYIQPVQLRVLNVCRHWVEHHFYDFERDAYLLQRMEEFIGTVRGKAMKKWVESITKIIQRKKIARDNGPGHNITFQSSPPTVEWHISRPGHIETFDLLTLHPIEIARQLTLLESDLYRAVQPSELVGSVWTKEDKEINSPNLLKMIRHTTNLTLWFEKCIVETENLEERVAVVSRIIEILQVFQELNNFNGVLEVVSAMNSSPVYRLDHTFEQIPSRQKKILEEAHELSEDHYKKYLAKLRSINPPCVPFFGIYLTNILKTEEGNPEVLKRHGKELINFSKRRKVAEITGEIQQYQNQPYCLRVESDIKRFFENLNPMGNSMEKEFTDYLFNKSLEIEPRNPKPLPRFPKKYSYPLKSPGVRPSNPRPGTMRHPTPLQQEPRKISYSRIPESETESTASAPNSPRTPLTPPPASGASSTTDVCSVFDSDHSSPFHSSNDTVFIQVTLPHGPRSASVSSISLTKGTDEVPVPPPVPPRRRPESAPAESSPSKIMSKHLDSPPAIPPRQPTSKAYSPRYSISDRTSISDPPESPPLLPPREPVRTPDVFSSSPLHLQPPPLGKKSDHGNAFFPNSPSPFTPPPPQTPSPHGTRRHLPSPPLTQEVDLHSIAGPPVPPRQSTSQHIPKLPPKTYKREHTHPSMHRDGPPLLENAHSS
pIC50: −log10 of the molar value.
quantityName: pIC50

> print(dat)
                                   compound  quantityname        result
1  CC(=O)N1CCC(c2cc3c(N[C@H](C)c4cccc5c4CCC5(F)F)nc(C)nc3n3cnnc23)CC1 [Example 7]         pIC50        > 7.00
2  COCC(=O)N1CCC(c2cc3c(N[C@H](C)c4cccc5c4CCC5(F)F)nc(C)nc3n3cnnc23)CC1 [Example 10]         pIC50        > 7.00
3  Cc1nc(N[C@H](C)c2cccc3c2CCC3(F)F)c2cc(N3CCOCC3)c3nncn3c2n1 [Example 23]         pIC50        > 7.00
4  COc1cc2c(cc1O[C@H]1CCOC1)c(N[C@H](C)c1cccc(C(F)(F)F)c1)nc1cncn12 [Example 56]         pIC50  5.30 to 6.30
5  COc1cc2c(cc1O[C@H]1CCOC1)c(N[C@H](C)c1cc(N)cc(C(F)(F)F)c1)nc1cncn12 [Example 57]         pIC50  6.30 to 7.00
6  C[C@@H](Nc1nc2ccnn2c2cc(=O)n(C3(C(F)F)CC3)cc12)c1cccc(C(F)(F)CO)c1 [Example 68]         pIC50        > 7.00

Okay, now this compound:
Q: I'd like to know its pIC50. The compound in question is C[C@@H](Nc1nc2ccnn2c2cc(=O)n([C@H]3CCOC3)cc12)c1cccc2c1CCC2(F)F [Example 71]
Ans: > 7.00

----------
This section lists IC50 readings for KRAS-WT and SOS1 proteins (Homo sapiens, UniProt Q07889).

Reference set, count: 5
> print(dat)
                                   molecule         result
1  COCC(F)(F)c1cccc([C@@H](C)Nc2nc(C)nc3c2cc(-c2ccc(=O)n(C)c2)c2c3cnn2C)c1 [Example 31]       < 100 nM
2  Cc1nc(N[C@H](C)c2cccc3c2CCC3(F)F)c2cc(-c3ccc(=O)n(C)c3)c3c(cnn3C)c2n1 [Example 25]       < 100 nM
3  COc1cc2c(cc1C1CCOCC1)c(N[C@H](C)c1cccc(C(F)F)c1F)nc1ccnn12 [Example 47]  100 to 500 nM
4  C[C@@H](Nc1nc2ccnn2c2cc(=O)n(C3CCOCC3)cc12)c1cccc(C(F)(F)CO)c1 [Example 60]       < 100 nM
5  C[C@@H](Nc1nc2ccnn2c2cc(=O)n(C3(C)CC3)cc12)c1cccc(C(C)(F)F)c1F [Example 64]       < 100 nM

Q: For the record Cc1nc(N[C@H](C)c2cccc(C(F)(F)CO)c2)c2cc(C3CCN(C)CC3)c3c(cnn3C)c2n1 [Example 30] , what value of IC50 is listed for KRAS-WT and SOS1 proteins (Homo sapiens, UniProt Q07889)?
Ans: < 100 nM

Q: API: value(readout= IC50, system= KRAS-WT and SOS1 proteins (Homo sapiens, UniProt Q07889), query= Cc1nc(N[C@H](C)c2cccc(C(F)(F)CO)c2)c2cc([C@H]3CC[C@@H](O)CC3)c3nncn3c2n1 [Example 15] )
Ans: < 100 nM

Q: # get_value(readout= IC50, system= KRAS-WT and SOS1 proteins (Homo sapiens, UniProt Q07889)) for Cc1nc(N[C@H](C)c2cccc(C(F)(F)CO)c2)c2cc(-c3ccc(=O)n(C)c3)c3[nH]ncc3c2n1 [Example 27]
Ans: < 100 nM

Q: Request: IC50, test system KRAS-WT and SOS1 proteins (Homo sapiens, UniProt Q07889), entry Cc1nc(N[C@H](C)c2cccc3c2CCC3(F)F)c2cc(O[C@H]3CCOC3)c3nncn3c2n1 [Example 19]
Ans: < 100 nM

Q: Form field - read-out: IC50; system: KRAS-WT and SOS1 proteins (Homo sapiens, UniProt Q07889); submitted item: Cc1nc(N[C@H](C)c2cccc(C(F)(F)F)c2)c2cc(O[C@H]3CCOC3)c3nncn3c2n1 [Example 17]
Ans: 100 to 500 nM

----------
Entries and their IC50
Biological target: KRAS-WT and SOS1 proteins (Homo sapiens)
Construct: purchased Cisbio 63ADK000CB15PEG
Sequence (Q07889 1-1333): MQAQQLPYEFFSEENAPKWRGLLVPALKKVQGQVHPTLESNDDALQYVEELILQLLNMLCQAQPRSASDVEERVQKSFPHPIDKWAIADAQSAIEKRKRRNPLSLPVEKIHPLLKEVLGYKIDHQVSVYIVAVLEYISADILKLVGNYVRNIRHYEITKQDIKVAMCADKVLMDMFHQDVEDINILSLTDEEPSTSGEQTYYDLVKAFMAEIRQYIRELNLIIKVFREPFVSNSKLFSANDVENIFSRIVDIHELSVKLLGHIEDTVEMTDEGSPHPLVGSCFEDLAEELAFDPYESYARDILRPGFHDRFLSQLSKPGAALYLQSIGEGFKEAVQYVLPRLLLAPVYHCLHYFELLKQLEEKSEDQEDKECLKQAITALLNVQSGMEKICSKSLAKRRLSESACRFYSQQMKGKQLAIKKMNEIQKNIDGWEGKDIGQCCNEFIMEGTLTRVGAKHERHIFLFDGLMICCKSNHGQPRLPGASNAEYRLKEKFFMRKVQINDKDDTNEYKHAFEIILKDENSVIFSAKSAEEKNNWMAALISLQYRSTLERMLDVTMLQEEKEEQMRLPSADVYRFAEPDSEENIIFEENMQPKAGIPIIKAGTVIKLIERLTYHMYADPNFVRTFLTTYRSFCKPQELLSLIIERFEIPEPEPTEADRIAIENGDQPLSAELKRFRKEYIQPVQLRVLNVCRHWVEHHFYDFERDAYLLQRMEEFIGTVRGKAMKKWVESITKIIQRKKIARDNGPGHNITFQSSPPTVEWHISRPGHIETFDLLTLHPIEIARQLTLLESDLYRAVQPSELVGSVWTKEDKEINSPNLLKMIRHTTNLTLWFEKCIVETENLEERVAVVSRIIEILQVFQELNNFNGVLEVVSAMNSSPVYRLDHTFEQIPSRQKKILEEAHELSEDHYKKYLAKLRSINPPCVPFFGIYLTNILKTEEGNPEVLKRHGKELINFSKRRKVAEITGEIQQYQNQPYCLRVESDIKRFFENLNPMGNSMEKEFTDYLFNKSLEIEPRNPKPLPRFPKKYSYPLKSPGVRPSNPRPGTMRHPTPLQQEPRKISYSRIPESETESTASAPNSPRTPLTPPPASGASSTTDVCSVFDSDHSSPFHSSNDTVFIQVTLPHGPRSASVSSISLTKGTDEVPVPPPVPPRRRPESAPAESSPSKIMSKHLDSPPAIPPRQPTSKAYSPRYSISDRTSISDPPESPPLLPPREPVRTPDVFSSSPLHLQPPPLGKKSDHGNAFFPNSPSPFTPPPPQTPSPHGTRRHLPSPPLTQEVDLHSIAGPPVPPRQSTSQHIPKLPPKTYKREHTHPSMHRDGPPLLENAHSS
Assay: KRAS-WT/SOS1 binding assay (HTRF)
Conditions: Tag1-SOS1 / Tag2-KRAS-WT, 10 μM GTP, read-out: Activity Data in Kras: SOS1 Assay, Wild Type

// worked examples, IC50 included
> print(dat)
                          compoundstructure  quantityname    result
1  Cc1nc(N[C@H](C)c2cccc(C(F)(F)CO)c2)c2cc(-c3ccc(=O)[nH]c3)c3[nH]ncc3c2n1          IC50  < 0.1 µM
2  Cc1nc(N[C@H](C)c2cccc(C(F)(F)CO)c2)c2cc(O[C@H]3CCOC3)c3c(cnn3C)c2n1          IC50  < 0.1 µM

Q: Could you tell me which IC50 is on file for C[C@@H](Nc1nc2ccnn2c2cc(=O)n(C3(C)CC3)cc12)c1cccc(C(F)(F)CO)c1 ?
Ans: < 0.1 µM

Q: Can you look up the measured IC50 of Cc1nc(N[C@H](C)c2cccc3c2CCC3(F)F)c2cc(C3CCN(S(C)(=O)=O)CC3)c3nncn3c2n1 for me?
Ans: < 0.1 µM
